assay system: T1, HuCD3E (Homo sapiens, UniProt P07766 23-126, limits assumed)
T1 construct: Recombinant analyte in SPR and antigen in ELISA; also called human CD3; human CD3 epsilon
T1 sequence (P07766 23-126 limits assumed): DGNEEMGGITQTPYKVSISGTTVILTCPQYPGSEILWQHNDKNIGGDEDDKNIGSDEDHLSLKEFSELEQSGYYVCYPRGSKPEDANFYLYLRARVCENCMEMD
assay text: SPR, Biacore 8K; CD3 Affinity column: Hi
readout type: Kd

Solved entries:
ABP100s.15 (antibody, V domains shown) VH: EVQLVESGGGLVKPGGSLRLSCAASGFTFNTYAMNWVRQAPGKGLEWVARIRSKYNNYATYYADSVKGRFTISRDDSQSSLYLQMNSLRAEDTAVYYCVRHGNFGNSYVSWFAYWGQGTLVTVSS VL: QAVVTQEPSLTVSPGGTVTLTCGSSTGAVTTSNYANWVQQKPGQAFRGLIGGTNKRAPWTPARFSGSLIGDKAALTLSGAQPEDEAEYFCALWYSNLWVFGGGTKLTVL ... < 10 nM
ABP100s.24 (antibody, V domains shown) VH: EVQLVESGGGLVKPGGSLRLSCAASGFTFNTYAMNWVRQAPGKGLEWVARIRSKYNNYATYYADSVKGRFTISRDDAKSSLYLQMNSLRAEDTAVYYCVRHGNFGNSYVSWFAYWGQGTLVTVSS VL: QAVVTQEPSFSVSPGGTVTLTCGSSTGAVTTSNYANWVQQTPGQAFRGLIGGTNKRASGVPDRFSGSLLGDKAALTITGAQADDESDYYCALWYSNLWVFGGGTKLTVL ... < 10 nM

Pending binder:
Tell me the measured Kd of ABP100s.22 (antibody, V domains shown) VH: EVQLVESGGGLVQPGGSLRLSCAASGFTFNTYAMNWVRQAPGKGLEWVARIRSKYNNYATYYADSVKGRFTISRDDSKSSLYLQMNSLKTEDTAVYYCVRHGNFGNSYVSWFAYWGQGTLVTVSS VL: QAVVTQEPSFSVSPGGTVTLTCGSSTGAVTTSNYANWVQQTPGQAFRGLIGGTNKRASGVPDRFSGSLLGDKAALTITGAQADDESDYYCALWYSNLWVFGGGTKLTVL , please.
< 10 nM
